Taken from patent US8163727B2.

Provide the recorded melting point for the entries that follow.

State the recorded melting point for this entry: "CC(C)S(=O)(=O)c1ccc(-c2cc(C(F)(F)F)ccc2OCC(=O)O)cc1F"
170 to 171 °C

State the recorded melting point for this entry: "C[C@H](Oc1ccc(Cl)cc1-c1ccc(S(C)(=O)=O)c(C(F)(F)F)c1)C(=O)O"
77 to 79 °C

State the recorded melting point for this entry: "C[C@H](Oc1ccc(Cl)cc1-c1ccc(S(=O)(=O)N2CCOCC2)c(C(F)(F)F)c1)C(=O)O"
148 to 149 °C

State the recorded melting point for this entry: "CCS(=O)(=O)c1ccc(-c2cc(C(F)(F)F)ccc2OCC(=O)O)cc1C(F)(F)F"
174 to 175 °C
